System: U2OS
Assay: Multiplex assay against U2OS
Type: toxicity, cell-based
Conditions: human, 24 h, 10 µM, compound concentration 10 uM, replicate 1
Category key, based on recorded Population Tubulin-Different-Phenotype (%): low class (below 20%), middle class (20% to below 80%), high class (80% or more)

{"columns": ["MOLECULE", "CATEGORY"],
 "data": [
  ["N#Cc1cnc(Nc2cc(NC[C@H]3CNCCO3)c(C(F)(F)F)cn2)cn1", "low class"],
  ["CC(=O)c1cc(-c2cc(C(=O)NC3CC3)ccc2C)c2ncccn12", "low class"],
  ["CCOc1cc(N2CCC(O)CC2)ccc1Nc1ncc2c(n1)N(C1CCCC1)CCC(=O)N2C", "middle class"],
  ["CC(C)N1CCC(C)(C)c2cc(C#Cc3ccc(C(=O)O)cc3)ccc21", "low class"],
  ["Cl.Cl.Nc1ncnc2c1c(-c1cccc(OCc3ccccc3)c1)cn2[C@H]1C[C@@H](CN2CCC2)C1", "high class"],
  ["CCN1CCN(Cc2ccc(NC(=O)c3ccc(C)c(Oc4ccnc5[nH]ccc45)c3)cc2C(F)(F)F)CC1.Cl.Cl.Cl.O", "low class"],
  ["CN(C)C/C=C/C(=O)Nc1cc2c(Nc3ccc(F)c(Cl)c3)ncnc2cc1O[C@H]1CCOC1.O=C(O)/C=C\\C(=O)O.O=C(O)/C=C\\C(=O)O [AFATINIB DIMALEATE]", "middle class"],
  ["CC(C)Oc1ccc(C(=O)N[C@H](CNC(=O)CN(C)C)Cc2ccc(-c3cn4cccc([C@H](C)O)c4n3)cc2)cc1Cl [GSK-923295A]", "high class"],
  ["CNc1oc(-c2cccc3ccccc23)nc1C#N", "low class"],
  ["O=C(O)c1ccc2cc(-c3ccc(O)c(C45CC6CC(CC(C6)C4)C5)c3)ccc2c1", "low class"]
]}

Which of the defined bands does the recorded Population Tubulin-Different-Phenotype (%) of `COc1cc2c(Nc3ccc(NC(=O)c4ccccc4)cc3)ncnc2cc1OCCCN1CCOCC1` sit within?
low class

Which of the defined bands does the recorded Population Tubulin-Different-Phenotype (%) of `CNC(=O)c1cc(Oc2ccc(NC(=O)Nc3cc(C(C)(C)C)nn3-c3ccc4ncccc4c3)c(F)c2)ccn1` sit within?
high class
